# target-or-system: human CLDN6 fused to GFP, expressed on engineered HEK293T cells (human) (UniProt P56747)
# protocol-notes: FACS, 293T clone with human CLDN6, 0.3 ug Ab
metric: FACS signal
Could you keep your reply to the number by itself?

Worked examples follow.
| binder | assay-value |
| --- | --- |
| AB3-2 (antibody, V domains shown) VH: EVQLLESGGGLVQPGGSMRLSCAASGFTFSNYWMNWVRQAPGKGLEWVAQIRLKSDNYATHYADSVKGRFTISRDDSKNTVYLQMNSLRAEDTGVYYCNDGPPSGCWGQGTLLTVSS VL: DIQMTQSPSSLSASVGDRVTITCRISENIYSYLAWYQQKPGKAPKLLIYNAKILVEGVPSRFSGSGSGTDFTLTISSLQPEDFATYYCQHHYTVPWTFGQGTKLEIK | 309000 |
| AB11-3 (antibody, V domains shown) VH: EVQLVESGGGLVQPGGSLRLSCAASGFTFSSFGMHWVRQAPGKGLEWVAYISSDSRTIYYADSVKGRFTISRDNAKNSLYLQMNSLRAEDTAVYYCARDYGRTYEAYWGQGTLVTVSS VL: DIVLTQSPDSLAVSLGERATINCRASKSVSTSGYSYIHWYQQKPGQPPKLLIYLASNLESGVPDRFSGSGSGTDFTLTISSVQAEDVAVYYCQHSRELPLTFGQGTKLELK | 1010 |

Shifting focus to the binder that follows.
Specify measured FACS signal for AB4-chim (antibody, V domains shown) VH: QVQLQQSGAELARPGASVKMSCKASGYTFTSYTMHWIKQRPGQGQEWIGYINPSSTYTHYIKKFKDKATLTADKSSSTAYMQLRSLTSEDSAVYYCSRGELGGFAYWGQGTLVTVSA VL: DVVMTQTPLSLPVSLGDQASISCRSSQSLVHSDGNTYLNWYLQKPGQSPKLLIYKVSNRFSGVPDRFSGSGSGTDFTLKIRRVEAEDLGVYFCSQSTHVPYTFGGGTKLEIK .
176000
